# MEASUREMENT_NOTES: isobaric coefficient of expansion
# CONDITION_LABEL: 318.15 K; 15000 kPa; Liquid; Micro DSCII
Entries annotated with measured isobaric coefficient of expansion
PROPERTY_LABEL: isobaric coefficient of expansion

> print(dat)
                                   compound      observed
1  CCCCn1cc[n+](C)c1.COS(=O)(=O)[O-] [1-butyl-3-methylimidazolium methyl sulfate]   0.00053 1/K
2  CCCCn1cc[n+](C)c1.O=S(=O)([O-])C(F)(F)F [1-butyl-3-methylimidazolium trifluoromethanesulfonate]  0.000585 1/K
3  CCCC[n+]1ccn(C)c1.O=S(=O)([N-]S(=O)(=O)C(F)(F)F)C(F)(F)F  0.000634 1/K
4  CCCCn1cc[n+](C)c1.[F][Sb-]([F])([F])([F])([F])[F] [1-butyl-3-methylimidazolium hexafluoroantimonate]  0.000599 1/K
5  CCCCn1cc[n+](C)c1.F[B-](F)(F)F [1-butyl-3-methylimidazolium tetrafluoroborate]   0.00057 1/K

* * *

# MEASUREMENT_NOTES: isobaric coefficient of expansion
# CONDITION_LABEL: 348.15 K; 10000 kPa; Liquid; Micro DSCII
Entries annotated with measured isobaric coefficient of expansion
PROPERTY_LABEL: isobaric coefficient of expansion

> print(dat)
                                   compound      observed
1  CCCCn1cc[n+](C)c1.[F][Sb-]([F])([F])([F])([F])[F] [1-butyl-3-methylimidazolium hexafluoroantimonate]  0.000597 1/K
2  CCCCn1cc[n+](C)c1.COS(=O)(=O)[O-] [1-butyl-3-methylimidazolium methyl sulfate]  0.000524 1/K
3  CCCCn1cc[n+](C)c1.F[B-](F)(F)F [1-butyl-3-methylimidazolium tetrafluoroborate]  0.000566 1/K
4  CCCC[n+]1ccn(C)c1.O=S(=O)([N-]S(=O)(=O)C(F)(F)F)C(F)(F)F  0.000639 1/K
5  CCCCn1cc[n+](C)c1.O=S(=O)([O-])C(F)(F)F [1-butyl-3-methylimidazolium trifluoromethanesulfonate]  0.000583 1/K

* * *

# MEASUREMENT_NOTES: isobaric coefficient of expansion
# CONDITION_LABEL: 298.15 K; 10000 kPa; Liquid; Micro DSCII
PROPERTY_LABEL: isobaric coefficient of expansion

> print(dat)
                                   compound                     property.label      observed
1  CCCCn1cc[n+](C)c1.F[B-](F)(F)F [1-butyl-3-methylimidazolium tetrafluoroborate]  isobaric coefficient of expansion   0.00059 1/K
2  CCCCn1cc[n+](C)c1.O=S(=O)([O-])C(F)(F)F [1-butyl-3-methylimidazolium trifluoromethanesulfonate]  isobaric coefficient of expansion  0.000604 1/K
3  CCCCn1cc[n+](C)c1.COS(=O)(=O)[O-] [1-butyl-3-methylimidazolium methyl sulfate]  isobaric coefficient of expansion  0.000547 1/K
4  CCCC[n+]1ccn(C)c1.O=S(=O)([N-]S(=O)(=O)C(F)(F)F)C(F)(F)F  isobaric coefficient of expansion  0.000653 1/K
5  CCCCn1cc[n+](C)c1.[F][Sb-]([F])([F])([F])([F])[F] [1-butyl-3-methylimidazolium hexafluoroantimonate]  isobaric coefficient of expansion  0.000619 1/K

* * *

# MEASUREMENT_NOTES: isobaric coefficient of expansion
# CONDITION_LABEL: 348.15 K; 35000 kPa; Liquid; Micro DSCII
Entries annotated with measured isobaric coefficient of expansion
PROPERTY_LABEL: isobaric coefficient of expansion

> print(dat)
                                   compound      observed
1  CCCCn1cc[n+](C)c1.COS(=O)(=O)[O-] [1-butyl-3-methylimidazolium methyl sulfate]  0.000499 1/K
2  CCCC[n+]1ccn(C)c1.O=S(=O)([N-]S(=O)(=O)C(F)(F)F)C(F)(F)F  0.000586 1/K
3  CCCCn1cc[n+](C)c1.F[B-](F)(F)F [1-butyl-3-methylimidazolium tetrafluoroborate]  0.000535 1/K
4  CCCCn1cc[n+](C)c1.O=S(=O)([O-])C(F)(F)F [1-butyl-3-methylimidazolium trifluoromethanesulfonate]  0.000547 1/K
5  CCCCn1cc[n+](C)c1.[F][Sb-]([F])([F])([F])([F])[F] [1-butyl-3-methylimidazolium hexafluoroantimonate]  0.000562 1/K

* * *

Entries annotated with measured isobaric coefficient of expansion
# MEASUREMENT_NOTES: isobaric coefficient of expansion
# CONDITION_LABEL: 298.15 K; 35000 kPa; Liquid; Micro DSCII
PROPERTY_LABEL: isobaric coefficient of expansion

> print(dat)
                                   molecule      observed
1  CCCCn1cc[n+](C)c1.O=S(=O)([O-])C(F)(F)F [1-butyl-3-methylimidazolium trifluoromethanesulfonate]  0.000566 1/K
2  CCCCn1cc[n+](C)c1.F[B-](F)(F)F [1-butyl-3-methylimidazolium tetrafluoroborate]  0.000558 1/K
3  CCCCn1cc[n+](C)c1.[F][Sb-]([F])([F])([F])([F])[F] [1-butyl-3-methylimidazolium hexafluoroantimonate]  0.000581 1/K
4  CCCC[n+]1ccn(C)c1.O=S(=O)([N-]S(=O)(=O)C(F)(F)F)C(F)(F)F  0.000607 1/K
5  CCCCn1cc[n+](C)c1.COS(=O)(=O)[O-] [1-butyl-3-methylimidazolium methyl sulfate]  0.000518 1/K

* * *

# MEASUREMENT_NOTES: isobaric coefficient of expansion
# CONDITION_LABEL: 278.15 K; 50000 kPa; Liquid; Micro DSCII
PROPERTY_LABEL: isobaric coefficient of expansion

> print(dat)
                                   compound                     property.label      observed
1  CCCCn1cc[n+](C)c1.O=S(=O)([O-])C(F)(F)F [1-butyl-3-methylimidazolium trifluoromethanesulfonate]  isobaric coefficient of expansion  0.000561 1/K
2  CCCCn1cc[n+](C)c1.F[B-](F)(F)F [1-butyl-3-methylimidazolium tetrafluoroborate]  isobaric coefficient of expansion  0.000553 1/K
3  CCCCn1cc[n+](C)c1.[F][Sb-]([F])([F])([F])([F])[F] [1-butyl-3-methylimidazolium hexafluoroantimonate]  isobaric coefficient of expansion  0.000575 1/K
4  CCCCn1cc[n+](C)c1.COS(=O)(=O)[O-] [1-butyl-3-methylimidazolium methyl sulfate]  isobaric coefficient of expansion  0.000516 1/K
5  CCCC[n+]1ccn(C)c1.O=S(=O)([N-]S(=O)(=O)C(F)(F)F)C(F)(F)F  isobaric coefficient of expansion  0.000594 1/K

* * *

# MEASUREMENT_NOTES: isobaric coefficient of expansion
# CONDITION_LABEL: 298.15 K; 25000 kPa; Liquid; Micro DSCII
Entries annotated with measured isobaric coefficient of expansion
PROPERTY_LABEL: isobaric coefficient of expansion

> print(dat)
                                   compound                     property.label      observed
1  CCCCn1cc[n+](C)c1.F[B-](F)(F)F [1-butyl-3-methylimidazolium tetrafluoroborate]  isobaric coefficient of expansion  0.000571 1/K
2  CCCCn1cc[n+](C)c1.[F][Sb-]([F])([F])([F])([F])[F] [1-butyl-3-methylimidazolium hexafluoroantimonate]  isobaric coefficient of expansion  0.000597 1/K
3  CCCCn1cc[n+](C)c1.O=S(=O)([O-])C(F)(F)F [1-butyl-3-methylimidazolium trifluoromethanesulfonate]  isobaric coefficient of expansion  0.000581 1/K
4  CCCCn1cc[n+](C)c1.COS(=O)(=O)[O-] [1-butyl-3-methylimidazolium methyl sulfate]  isobaric coefficient of expansion  0.000529 1/K
5  CCCC[n+]1ccn(C)c1.O=S(=O)([N-]S(=O)(=O)C(F)(F)F)C(F)(F)F  isobaric coefficient of expansion  0.000626 1/K

* * *

# MEASUREMENT_NOTES: isobaric coefficient of expansion
# CONDITION_LABEL: 308.15 K; 25000 kPa; Liquid; Micro DSCII
Entries annotated with measured isobaric coefficient of expansion
PROPERTY_LABEL: isobaric coefficient of expansion

> print(dat)
                                   molecule      observed
1  CCCCn1cc[n+](C)c1.O=S(=O)([O-])C(F)(F)F [1-butyl-3-methylimidazolium trifluoromethanesulfonate]  0.000574 1/K
2  CCCCn1cc[n+](C)c1.COS(=O)(=O)[O-] [1-butyl-3-methylimidazolium methyl sulfate]  0.000522 1/K
3  CCCC[n+]1ccn(C)c1.O=S(=O)([N-]S(=O)(=O)C(F)(F)F)C(F)(F)F  0.000617 1/K
4  CCCCn1cc[n+](C)c1.[F][Sb-]([F])([F])([F])([F])[F] [1-butyl-3-methylimidazolium hexafluoroantimonate]  0.000589 1/K
5  CCCCn1cc[n+](C)c1.F[B-](F)(F)F [1-butyl-3-methylimidazolium tetrafluoroborate]  0.000561 1/K
